experiment: Selectivity index, ratio of IC50 for African green monkey Vero cells to IC50 for D-sorbitol synchronized ring stage of chloroquine-resistant Plasmodium falciparum W2; type: toxicity; conditions: read-out: Ratio IC50
Readout Type: selectivity ratio
Answer as a number with no unit attached.

Record O=C1c2cccc3c(N4CCOCC4)ccc(c23)C(=O)N1CCCCNc1ccnc2cc(Cl)ccc12 . Reported selectivity ratio: 52.6

Record O=C1c2cccc3c(N4CCCCC4)ccc(c23)C(=O)N1CCCCNc1ccnc2cc(Cl)ccc12 . Reported selectivity ratio: 352

Record O=C1c2cccc3cccc(c23)C(=O)N1CCCNc1ccnc2cc(Cl)ccc12 . Reported selectivity ratio: 21.4

Record O=C1c2cccc3cccc(c23)C(=O)N1CCCCCCNc1ccnc2cc(Cl)ccc12 . Reported selectivity ratio: 560

Record O=C1c2cccc3c(N4CCOCC4)ccc(c23)C(=O)N1CCCCCCCCNc1ccnc2cc(Cl)ccc12 . Reported selectivity ratio: 44.1

Record O=C1c2cccc3c(N4CCCCC4)ccc(c23)C(=O)N1CCCCCCCCNc1ccnc2cc(Cl)ccc12 . Reported selectivity ratio: 401
